# studyTarget: T1, Mouse PD-L1-Fc (mouse, UniProt Q9EP73 19-239, limits assumed)
# T1 construct: also called murine PD-L1; not shown: Fc
# T1 sequence (Q9EP73 19-239 limits assumed): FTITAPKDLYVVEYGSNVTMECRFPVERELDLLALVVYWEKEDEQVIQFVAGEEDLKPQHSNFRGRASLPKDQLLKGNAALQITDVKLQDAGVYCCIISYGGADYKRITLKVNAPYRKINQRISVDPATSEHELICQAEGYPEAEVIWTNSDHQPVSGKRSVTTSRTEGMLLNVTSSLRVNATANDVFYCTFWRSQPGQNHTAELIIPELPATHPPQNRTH
# assayExplanation: ForteBio, IgG, avid
reportedMetric: pKd
Scale explanation: pKd corresponds to minus log10 of a concentration expressed in moles per litre.

I am curious: what pKd value has been reported for BiPDL3-34 (antibody, V domains shown, IgG; also called ADI-37468; 37468) VH: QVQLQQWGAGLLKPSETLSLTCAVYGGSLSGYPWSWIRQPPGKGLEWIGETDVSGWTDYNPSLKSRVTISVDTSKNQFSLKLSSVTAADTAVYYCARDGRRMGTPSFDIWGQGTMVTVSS VL: DIQMTQSPSSVSASVGDRVTITCRASQDISSFLAWYQQKPGKAPKLLIYAASSLQDGVPSRFSGSGSGTDFTLTISSLQPEDFATYYCQKSVYFPPTFGGGTKVEIK ?
7.50

# get_value(readout='pKd', item= BiPDL3-24 (antibody, V domains shown, IgG; also called ADI-37465; 37465) VH: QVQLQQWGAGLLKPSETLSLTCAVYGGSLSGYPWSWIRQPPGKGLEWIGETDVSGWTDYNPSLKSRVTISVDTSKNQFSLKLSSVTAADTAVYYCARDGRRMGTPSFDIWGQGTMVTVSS VL: DIQMTQSPSSVSASVGDRVTITCRASQGISNFLAWYQQKPGKAPKLLIYAASSLQSGVPSRFSGSGSGTDFTLTISSLQPEDFATYYCQKAVYFPPTFGGGTKVEIK )
8.58

GET /values?readout=pKd&item= BiPDL3-14 (antibody, V domains shown, IgG; also called ADI-37464; 37464) VH: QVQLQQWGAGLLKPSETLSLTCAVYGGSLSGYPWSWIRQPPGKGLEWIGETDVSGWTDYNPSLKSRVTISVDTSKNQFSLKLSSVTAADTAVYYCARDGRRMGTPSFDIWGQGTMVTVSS VL: DIQMTQSPSSVSASVGDRVTITCRASQGINSFLAWYQQKPGKAPKLLIYAASSLNSGVPSRFSGSGSGTDFTLTISSLQPEDFATYYCQKAVYFPPTFGGGTKVEIK
8.63

Quick check: pKd of BiPDL3-44 (antibody, V domains shown, IgG; also called ADI-37475; 37475) VH: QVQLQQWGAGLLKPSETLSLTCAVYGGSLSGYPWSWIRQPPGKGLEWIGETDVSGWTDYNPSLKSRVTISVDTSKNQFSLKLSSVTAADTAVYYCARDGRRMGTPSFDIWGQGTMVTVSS VL: DIQMTQSPSSVSASVGDRVTITCRASQGISTFLAWYQQKPGKAPKLLIYAASALHSGVPSRFSGSGSGTDFTLTISSLQPEDFATYYCQRAVYFPPTFGGGTKVEIK ?
7.38

Hello, the source for this data is patent US20250059282A1, in case you need it.
